Assay Target: full-length recombinant H7 HA (A/Netherlands/219/2003) on PER.C6 cells (influenza A virus (H7N7))
Protocol Details: FACS, IgG 5 µg/ml, HA-expressing PER.C6 cells; untransfected MFI 4
Recorded Metric: MFI (MFI)
All answers are understood in MFI, so give the number only.

Solved cases (3 shown):
CR8001 (antibody, V domains shown) VH: EVQLVESGGGLIQPGGSLRLSCAASGFTVSSNYVSWVRQAPGKGLEWLSLIYTGGTTYYADSVKGRFTISRDNSKNTVFLQMNSLRAEDAAMYYCARVSALRFLQWPNYAMDV VL: QSALTQPASVSGSPGRSITISCSGTRSDVGGHNYVSWYQQHPGKAPKLMIYEVSHRPSGVSNRFSGSKSGSTASLTISGLQSEDEADYYCSSYTGEGPLGV | 106
CR8039 (antibody, V domains shown) VH: QLQLQESGPGLVKPSETLSLTCTVSGGSIGSYYWSWIRQPPGKGLEWIGYIYYRGGTSYNPSLKSRVTISVDTSKSQFTLKLNSVTAADTAVYYCARKDWGSAAGSVWYFDL VL: QSALTQPPSASGSPGQSVTISCTGTSSDVGGYNYVSWYQQHPGKAPKLMIREVSKRPSGVPDRFSGSKSGNTASLTVSGLQAEDEAEYYCSSYAGSNNLI | 4
CR8041 (antibody, V domains shown) VH: QVQLVQSGAEVKKPGASVKVSCQASGYTFTSFGLSWVRQAPGQGPEWMGWISAYNGEIKYAQKFQGRVSMTTDTSTRTAYMEVRSLRPDDTAVYYCAREPPLYFSSWSLDF VL: EIVLTQSPGTLSLSPGERATLSCRASQSVSSNYLAWFQQKPGQAPRLLIYGASRRATGIPDRFSGSGSGTDFTLTISRLEPEDFAVYYCQQYDSSPRT | 120

Now take the following binder into account.
Input line: So what's the measured MFI for this one? CR8052 (antibody, V domains shown) VH: DIQLTQSPSSLSASVGDRVTITCRASQGINTYLNWYQQKPGKAPKVLIFAASTLQSGVPSRFSGSGSGTEFTLNINNLQPEDFATYYCQQSYSTAIT VL: EVQLVESGGGVVQPGRSLRLSCAASGFSFTTYGMHWVRQAPGKGLEWVAFIWYDGSNKHYQDSVKGRFTISKDNSNNMLYLQMDSLRVADTAVYYCVRDGGYSTWEWYFDL
Output line: 5
